The values you see were collected from a melting point compilation (Tetko et al.; mined from patent text by program, amines drawn as free bases though some values may be those of a salt).

assay-metric: melting point

Consider the reported melting point for these molecules:
{"columns": ["molecule", "melting point"],
 "data": [
  ["CC(=O)CN1C(=O)C(NC(=O)Nc2cccc(C)c2)N=C(C)c2cccc(C)c21 (stereo not drawn)", "126 to 128 °C"],
  ["COC(=O)c1c2ccccc2nc2cc(Cl)ccc12", "148 °C"],
  ["Cc1cccc(Sc2c(O)c3ccc(Cl)cc3[nH]c2=O)c1", "234 to 236 °C"]
]}

Lookup: Read the entry CN(C)CCNc1nccc(N2CCCCCC2)n1 and write its reported melting point.
Found: 53 to 54.5 °C

Lookup: Name the recorded melting point of the molecule listed here: C=C1CC2C(=CCC3(C)C2CC(C)C3(OC(C)=O)C(C)=O)C2(C)CCC(=O)C=C12 (stereo not drawn)
Found: 197 to 198 °C

Lookup: Quickly give me recorded melting point for Cc1ccc(-c2c(C)c3cc(O)ccc3n2Cc2ccc(OCCN3CCCCC3)cc2)cc1
Found: 162 to 164 °C

Lookup: Find the measured melting point of CC(=O)NCC1CN(c2ccc(-c3cccc(CN(CC(N)=O)CC(N)=O)c3)c(F)c2)C(=O)O1 (stereo not drawn) and report it.
Found: 213 °C

Lookup: Specify reported melting point for the molecule shown: NC(=O)C1CCN(c2cc(-c3ccccc3)nc3ccc(F)cc23)CC1
Found: 230 to 233 °C

Lookup: Report melting point, nothing else, for this molecule: COc1ccc(OC)c(C=C2CCn3c2nc2ccc(Cl)cc2c3=O)c1
Found: 220 to 222 °C

Lookup: Kindly indicate its recorded melting point. Item: O=C(N=P(c1ccccc1)(c1ccccc1)c1ccccc1)OCC1CC1
Found: 107 to 113 °C

Lookup: Indicate its recorded melting point; the molecule in question is COc1ccc(OC)c(C(O)CNC(=O)CN)c1 (stereo not drawn)
Found: 106 to 107 °C

Lookup: Give the value of melting point reported for the following: CC(C)CC(NC(=O)c1cc(O)c2c(c1)C(=O)c1cccc(O)c1C2=O)C(=O)O (stereo not drawn)
Found: 204 to 206 °C

Lookup: Dear colleague, please send me the reported melting point for O=C(O)CCCC=Cc1nn(-c2ccc(F)cc2)c2c1CCC2 when you can.
Found: 90 to 91 °C

Lookup: Indicate its recorded melting point; the molecule in question is O=C(O)c1ccc(Cl)cc1C(=O)NCCCCc1cccnc1
Found: 152 to 154 °C

Lookup: Please supply the value of reported melting point for the item S=C(NCc1cccc(Cl)c1)N1CCc2c([nH]c3ccccc23)C1c1ccc2c(c1)OCO2 (stereo not drawn)
Found: 189 to 191 °C

Lookup: Please give measured melting point of the following entry: NC(=O)C(c1cccc(F)c1)N(C(=O)c1cccn2ccnc12)C(F)(F)F (stereo not drawn)
Found: 118 to 120 °C

Lookup: Give a short answer stating reported melting point for CC(O)c1ccc(C(O)(c2ccc3c(c2)c(-c2cccc(Cl)c2)cc(=O)n3C)c2cncn2C)cc1 (stereo not drawn) .
Found: 181 °C

----------
assay-metric: melting point

{"columns": ["compound", "measured-result"],
 "data": [
  ["CCOC(=O)NNc1ccc(N(CC)CC(C)O)nn1 (centres undefined)", "160 to 162 °C"],
  ["CC(C)CN(Cc1csc(C(C)C)n1)C(=O)N[C@H](C(=O)N[C@@H](Cc1ccccc1)C[C@H](O)[C@H](Cc1ccccc1)NC(=O)OCc1cncs1)C(C)C", "60 to 61 °C"],
  ["O=C(CCNNC(=O)c1ccccc1)OCc1ccccc1", "65 °C"]
]}

Please look at the following compound next.
Lookup: Tell us which melting point value is on record for NC(=O)c1ccc2nccn2c1
Found: 202 to 204 °C

----------
assay-metric: melting point

Here's what some known entries look like.
{"columns": ["compound", "melting point"],
 "data": [
  ["COc1ccc2c(c1)CC(C)C1C2C(C)CC2(C)C(O)CCC12 (stereo not given)", "130 to 131 °C"],
  ["CC(=O)Nc1cc(Cl)c(O)c(Cl)c1", "151 to 152 °C"],
  ["COC(=O)c1cccc(CN2CCN(c3nc(C)c(C(=O)NCc4ccccc4)s3)C2=O)c1", "49 to 51 °C"],
  ["Cc1cccc(-c2nc(-c3ccc(S(C)(=O)=O)cc3)sc2-c2ccnc(Sc3ccccc3)c2)c1", "116 to 118 °C"]
]}

Lab note: next compound to report on.
Lookup: Retrieve melting point measured for COc1ccc(-c2ccc3c(c2)c2ccc(C=Cc4ccccc4)nc2n3S(=O)(=O)c2ccccc2)cc1 and print it.
Found: 193 to 195 °C

----------
assay-metric: melting point

The following molecules have reported results that may help.
{"columns": ["molecule", "measured-result"],
 "data": [
  ["Cc1ccc(S(=O)(=O)n2ccc3cc(Br)ccc32)cc1", "135 °C"],
  ["O=C(c1cc(C(F)(F)F)cc(C(F)(F)F)c1)N1CCN(C(=O)CN2CCC(O)(c3ccccc3)CC2)C(c2ccccc2)C1 (racemic)", "101 to 102 °C"],
  ["O=[N+]([O-])c1cccc(-c2ccccc2O)c1", "99.5 to 100 °C"],
  ["COc1ccc(NC(=O)Nc2c(Cl)cncc2Cl)cc1OC1CCCC1", "183 to 184 °C"],
  ["Cc1ccccc1-c1nc(-c2ccc(-c3ccccc3)cc2)n[nH]1", "165 to 167 °C"],
  ["Cc1nc(-c2cc(N)c(=O)[nH]c2C)cs1", "192 to 194 °C"]
]}

Lookup: Look up and state reported melting point for C=CC(=O)Oc1ccc(-c2cccc(-c3ccc(OC(=O)C=C)cc3)c2)cc1
Found: 106 °C

----------
assay-metric: melting point

Observe how each entry below is paired with its result.
{"columns": ["compound", "melting point"],
 "data": [
  ["COc1cc2c(cc1OCc1ccccc1)CCN(C(=O)c1cccc(C#N)c1)C2=O", "195 to 196 °C"],
  ["O=C(Nc1nccs1)C(CC1CCCC1)c1ccc(Cl)c([N+](=O)[O-])c1 (stereo not drawn)", "68 to 72 °C"]
]}

Continue with the compound presented below.
Lookup: Identify measured melting point corresponding to CC1(C)OCCc2c1n(Cc1ccccc1)c1ccccc21
Found: 132 to 134 °C

----------
Recorded melting point, one value per entry.

Worked examples, 5 compounds total:
{"columns": ["compound", "measured-result"],
 "data": [
  ["Cc1ccc(OCCC(CCl)NC(=O)c2c(F)cccc2F)cc1 (stereo unspecified)", "97 to 99 °C"],
  ["O=c1c2ccccc2ccc2ccc(I)cc12", "97.5 to 99 °C"],
  ["COC(=O)c1ccc(C=Cc2ccc(-c3cc4cc(Cl)ccc4o3)cc2)cc1", "264 to 266 °C"],
  ["CCN(C(=O)N1CCN(c2cc(C)cc(C)c2)CC1)c1cc2ccccc2nc1OC", "84 to 86 °C"],
  ["CC(=O)C1=CCC2C3CCC4CC(O)CCC4(C)C3CCC12C (stereo unspecified)", "186 to 188 °C"]
]}

Lookup: Give me measured melting point, please, for this compound: Cc1c(C)c2c(c(C)c1O)CCC(C)(C)O2
Found: 85 to 88 °C

----------
Listed molecules paired with reported melting point

Field: example entries. Status: answers known.
{"columns": ["molecule", "measured-result"],
 "data": [
  ["O=C(CN1CCCCC1=O)N1CCC(C2c3ncc(Br)cc3CCc3cc(Cl)cc(Br)c32)CC1 (single isomer, unassigned; (+))", "138 to 139 °C"],
  ["Cc1cc(Oc2ccc(S(C)(=O)=O)nc2)ccc1[N+](=O)[O-]", "138 to 140 °C"],
  ["c1ccc(C2CN(CCCc3cccnc3)Cc3c2[nH]c2ccccc32)cc1 (centres undefined)", "204 to 206 °C"]
]}

Could you now consider this next molecule?
Lookup: Output measured melting point for this item: Cc1cccc(-c2ncc(NC(=O)OCc3ccccc3)c(=O)n2CC(=O)O)c1
Found: 183 to 185 °C

----------
This listing pairs compounds with measured melting point.

Consider the worked cases shown below.
{"columns": ["compound", "assay-metric", "measured-result"],
 "data": [
  ["FC(F)(F)c1ccc(-n2ccc3cnccc32)c(Cl)c1", "melting point", "160 to 161 °C"],
  ["OC(c1ccccc1)C(CN1CC=C(c2ccc(Cl)cc2)CC1)c1ccccc1 (centres undefined)", "melting point", "135 to 137 °C"],
  ["C[C@]12CCC(=O)N[C@@H]1CCc1cc(Sc3ccccn3)ccc12", "melting point", "223 to 225 °C"]
]}

Lookup: Identify melting point associated with the compound O=C(O)c1ccc(-c2cc(-c3ccc(Cl)cc3)no2)cc1
Found: > 300 °C

Lookup: Give recorded melting point. O=C1[C@H]2CCCC[C@H]2Nc2ccccc2N1Cc1ccccc1 (relative stereo)
Found: 164 to 166 °C

Lookup: Give me measured melting point, please, for this compound: COc1cc2ncc(C#N)c(Nc3ccc(C)c(O)c3)c2cc1OC
Found: 222 to 224 °C
